Experiment: self-splicing fitness, log relative to wild type (ln ratio); higher = more splicing; Tetrahymena group I intron in knt gene, E. coli kanamycin selection, DiMSum; sequences stand for … in CUCUCU…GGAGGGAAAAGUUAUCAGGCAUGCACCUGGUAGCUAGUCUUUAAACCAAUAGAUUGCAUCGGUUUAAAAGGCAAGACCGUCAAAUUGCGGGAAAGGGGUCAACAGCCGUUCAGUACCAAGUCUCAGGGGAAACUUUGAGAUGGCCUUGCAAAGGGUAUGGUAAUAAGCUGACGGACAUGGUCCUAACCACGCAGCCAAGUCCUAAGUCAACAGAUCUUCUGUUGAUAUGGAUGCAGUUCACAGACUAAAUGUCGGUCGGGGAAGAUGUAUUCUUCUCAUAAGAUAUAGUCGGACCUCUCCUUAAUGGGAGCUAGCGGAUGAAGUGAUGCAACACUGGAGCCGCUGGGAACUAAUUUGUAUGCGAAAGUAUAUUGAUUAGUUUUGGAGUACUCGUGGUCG;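 further: selection with 25 µg/mL kanamycin versus none on LB agar overnight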
Details: 37 °C
Decide by self-splicing fitness (ln): equal to or exceeding -2 means condition met, less means condition not met.

Some entries whose results are on file:
INPUT: State whether the measured self-splicing fitness (ln) reaches -2, counting equality as reaching it, for UUCCAGCAAUAUUACGUUUU
OUTPUT: condition not met

INPUT: State whether the measured self-splicing fitness (ln) reaches -2, counting equality as reaching it, for GCCAAGCAAUAUUACGGUUA
OUTPUT: condition met

INPUT: State whether the measured self-splicing fitness (ln) reaches -2, counting equality as reaching it, for UGGAAGCAAUAUUACGGUGG
OUTPUT: condition met

INPUT: State whether the measured self-splicing fitness (ln) reaches -2, counting equality as reaching it, for CUGCAGCAAUAUUACGACCG
OUTPUT: condition met

INPUT: State whether the measured self-splicing fitness (ln) reaches -2, counting equality as reaching it, for AAAUAGCAAUAUUACGCGAU
OUTPUT: condition met

***
INPUT: State whether the measured self-splicing fitness (ln) reaches -2, counting equality as reaching it, for CGGCAGCAAUAUUACGGCUU
OUTPUT: condition met

INPUT: State whether the measured self-splicing fitness (ln) reaches -2, counting equality as reaching it, for AGUUAGCAAUAUUACGUCGC
OUTPUT: condition met

INPUT: State whether the measured self-splicing fitness (ln) reaches -2, counting equality as reaching it, for GCCUAGCAAUAUUACGUGUG
OUTPUT: condition met

INPUT: State whether the measured self-splicing fitness (ln) reaches -2, counting equality as reaching it, for ACUCAGCAAUAUUACGUCUA
OUTPUT: condition met

INPUT: State whether the measured self-splicing fitness (ln) reaches -2, counting equality as reaching it, for AGUAAGCAAUAUUACGGAUG
OUTPUT: condition not met

====

Measured self-splicing fitness (ln) of individual entries
Test: self-splicing fitness, log relative to wild type (ln ratio); higher = more splicing; Tetrahymena group I intron in knt gene, E. coli kanamycin selection, DiMSum; sequences stand for … in CUCUCU…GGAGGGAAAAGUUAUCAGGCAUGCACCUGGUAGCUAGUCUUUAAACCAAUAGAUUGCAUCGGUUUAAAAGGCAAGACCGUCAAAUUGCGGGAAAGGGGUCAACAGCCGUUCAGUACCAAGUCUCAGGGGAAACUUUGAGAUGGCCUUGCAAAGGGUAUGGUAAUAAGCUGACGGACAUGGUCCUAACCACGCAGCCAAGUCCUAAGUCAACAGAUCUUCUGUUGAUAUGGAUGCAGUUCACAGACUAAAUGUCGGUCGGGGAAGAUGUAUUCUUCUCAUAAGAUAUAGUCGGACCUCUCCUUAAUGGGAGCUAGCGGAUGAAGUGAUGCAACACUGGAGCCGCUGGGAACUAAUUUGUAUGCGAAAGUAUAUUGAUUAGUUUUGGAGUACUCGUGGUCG
Details: 37 °C
Answer with the value's number alone.

INPUT: Using the record for AGUAAGCAAUAUUACGAAGU , report its self-splicing fitness (ln).
OUTPUT: -0.18

INPUT: Using the record for AGAUAGCAAUAUUACGUUUG , report its self-splicing fitness (ln).
OUTPUT: -1.21

INPUT: Using the record for AUUUAGCAAUAUUACGUUGU , report its self-splicing fitness (ln).
OUTPUT: -2.82

INPUT: Using the record for ACUAAGCAAUAUUACGGGUC , report its self-splicing fitness (ln).
OUTPUT: -0.75

INPUT: Using the record for AAGAAGCAAUAUUACGUCUA , report its self-splicing fitness (ln).
OUTPUT: -0.565

Continue with the sequence presented below.
INPUT: Using the record for AGUUAGCAAUAUUACGAUCC , report its self-splicing fitness (ln).
OUTPUT: -0.367
